Test: xn = mol fraction of the nth substance listed, in the solute-free solvent
Conditions: 283.15 K; x2 = 0.4
measuredParameter: solubility (g/100 g solution)

// below: answered compounds
| compound | reported |
| --- | --- |
| O=c1ccc2ccccc2o1 + CO + O | 1.11 |
| O=c1ccc2ccccc2o1 + CC(C)=O + O | 19.5 |

A. O=C(CC(=O)c1ccccc1)c1ccccc1 + CC(C)O + O
B. O=C(CC(=O)c1ccccc1)c1ccccc1 + CCO + O
C. CC1(C)SC2C(NC(=O)C(NC(=O)N3CCNC3=O)c3ccccc3)C(=O)N2C1C(=O)O (configuration not stated) + CO + CC(C)O
D. O=C(CC(=O)c1ccccc1)c1ccccc1 + CO + O
E. CCOC(=O)C1=CC2(CC)CCCN3CCc4c(n1c1ccccc41)C32 (configuration not stated) + CCO + O
List by increasing solubility (g/100 g solution). API: response body holds the labels in the requested order.
D, E, C, A, B
